- System: Liver microsome
- EXPERIMENTAL PROTOCOL: Metabolic stability in rat liver microsomes assessed as compound remaining after 30 mins
- Type: ADME
- RECORDED CONDITIONS: 0.5 h
MEASURED QUANTITY: Stability

MOLECULE	Stability
C[S+]([O-])c1cccc(-c2ccc3ncc(-c4ccc(S(C)(=O)=O)cc4)n3n2)c1 (stereo not given)	Unstable
CS(=O)(=O)c1cccc(-c2ccc3ncc(-c4ccc(C(=O)N5CCC(O)C5)cc4)n3n2)c1 (stereo not given)	Stable
CS(=O)(=O)c1ccc(-c2cnc3ccc(-c4cccc(S(=O)(=O)CCCN)c4)nn23)cc1	Stable
C[S+]([O-])c1ccc(-c2cnc3ccc(-c4cccc([S+](C)[O-])c4)nn23)cc1 (stereo not given)	Unstable
CS(=O)(=O)c1cccc(-c2ccc3ncc(-c4ccc(S(=O)(=O)CCCN)cc4)n3n2)c1	Stable
C[S+]([O-])c1ccc(-c2cnc3ccc(-c4cccc(S(C)(=O)=O)c4)nn23)cc1 (stereo not given)	Stable
CS(=O)(=O)c1cccc(-c2ccc3ncc(-c4ccc(C(=O)N5CCNCC5)cc4)n3n2)c1	Stable
CS(=O)(=O)c1cccc(-c2ccc3ncc(-c4ccc(S(=O)(=O)N5CCNCC5)cc4)n3n2)c1	Unstable
CS(=O)(=O)c1ccc(-c2cnc3ccc(-c4cccc(C(=O)NCCO)c4)nn23)cc1	Unstable

Let us move to another entry and its Stability.
Request: Looking for the measured Stability of CS(=O)(=O)c1ccc(-c2cnc3ccc(-c4cccc(C(=O)N5CCC(O)CC5)c4)nn23)cc1 , can you help?
Result: Stable

* * *

- System: Plasmodium falciparum
- EXPERIMENTAL PROTOCOL: Antiplasmodial activity against Plasmodium falciparum K1 by [3H]hypoxanthine incorporation assay
- Format: functional, organism-based
Exercise: state measured IC50 for each of the molecules provided.
Answers are plain numbers, in nM.

Worked examples follow.
MOLECULE	IC50 / nM
C[S+]([O-])c1ccc(-c2cnc3ccc(-c4cccc([S+](C)[O-])c4)nn23)cc1 (stereo not given)	30
CS(=O)(=O)c1ccc(-c2cnc3ccc(-c4cncc(S(C)(=O)=O)c4)nn23)cc1	82

I need IC50 for every entry listed below, if you could help.
1. CS(=O)(=O)c1cncc(-c2ccc3ncc(-c4ccc(S(=O)(=O)C5CC5)cc4)n3n2)c1
2. CS(=O)(=O)c1cccc(-c2ccc3ncc(-c4ccc(C(=O)N5CCC(O)C5)cc4)n3n2)c1 (stereo not given)
3. O=S(=O)(c1cccc(-c2ccc3ncc(-c4ccc(-c5nnn[nH]5)cc4)n3n2)c1)C1CC1

Result:
1. 484
2. 21
3. 25

* * *

Could you please report measured IC50 for the items listed next?
- Test system: Plasmodium falciparum
- EXPERIMENTAL PROTOCOL: Antiplasmodial activity against Plasmodium falciparum K1 by [3H]hypoxanthine incorporation assay
- Assay type: functional, organism-based
State the value with its unit after it.

Give IC50 for each listed item.
1. CS(=O)(=O)c1cncc(-c2ccc3ncc(-c4cncc(S(C)(=O)=O)c4)n3n2)c1
2. NC(=O)c1ccc(-c2cnc3ccc(-c4cccc(S(=O)(=O)C5CC5)c4)nn23)cc1
3. CS(=O)(=O)c1cncc(-c2ccc3ncc(-c4ccc(S(C)(=O)=O)nc4)n3n2)c1
4. CS(=O)(=O)c1ccc(-c2cnc3ccc(-c4cccc(S(=O)(=O)C5CC5)c4)nn23)cc1
5. CS(=O)(=O)c1cccc(-c2ccc3ncc(-c4ccc(S(=O)(=O)N5CCNCC5)cc4)n3n2)c1
6. CS(=O)(=O)c1cccc(-c2ccc3ncc(-c4ccc(S(=O)(=O)CCCN)cc4)n3n2)c1

Result:
1. 473 nM
2. 1.2 nM
3. 610 nM
4. 0.53 nM
5. 8.8 nM
6. 9.4 nM

Report IC50 for each item below.
1. CS(=O)(=O)c1ccc(-c2cnc3ccc(-c4cccc(S(=O)(=O)C5CC5)c4)nn23)cn1
2. CS(=O)(=O)c1ccc(-c2cnc3ccc(-c4cccc(S(=O)(=O)CCCN)c4)nn23)cc1
3. CS(=O)(=O)c1cccc(-c2ccc3ncc(-c4cncc(S(C)(=O)=O)c4)n3n2)c1

Result:
2 nM
2.6 nM
42 nM

* * *

Exercise: state measured IC50 for each of the compounds provided.
- System: Plasmodium falciparum
- EXPERIMENTAL PROTOCOL: Antiplasmodial activity against Plasmodium falciparum K1 by [3H]hypoxanthine incorporation assay
- Assay type: functional, organism-based
One number for each entry, in nM.

As a guide, the following entries are already answered.
COMPOUND	ASSAY SYSTEM	UNIT LABEL	RECORDED NUMBER
CS(=O)(=O)c1cccc(-c2ccc3ncc(-c4ccc(N)nc4)n3n2)c1	Plasmodium falciparum	nM	19
CS(=O)(=O)c1ccc(-c2cnc3ccc(-c4ccnc(C(F)(F)F)c4)nn23)cc1	Plasmodium falciparum	nM	26
C[S+]([O-])c1cccc(-c2ccc3ncc(-c4ccc(S(C)(=O)=O)cc4)n3n2)c1 (stereo unspecified)	Plasmodium falciparum	nM	36
CS(=O)(=O)c1ccc(-c2cnc3ccc(-c4cncc(N)c4)nn23)cc1	Plasmodium falciparum	nM	55
CS(=O)(=O)c1cncc(-c2cnc3ccc(-c4cccc(S(=O)(=O)C5CC5)c4)nn23)c1	Plasmodium falciparum	nM	31

Next compound, please.
Request: Could you share which IC50 value was measured for CS(=O)(=O)c1cccc(-c2ccc3ncc(-c4ccc(S(C)(=O)=O)nc4)n3n2)c1 ?
Result: 9.9

* * *

- EXPERIMENTAL PROTOCOL: Aqueous solubility of the compound at pH 2
- Assay type: physicochemical
- RECORDED CONDITIONS: buffer
MEASURED QUANTITY: solubility (µM)
Give bare numbers, in µM.

COMPOUND	RECORDED NUMBER
CS(=O)(=O)c1cccc(-c2ccc3ncc(-c4ccc(C(=O)N5CCC(O)C5)cc4)n3n2)c1 (centres undefined)	191
CS(=O)(=O)c1ccc(-c2cnc3ccc(-c4ccnc(C(F)(F)F)c4)nn23)cc1	5.4

I have 2 compounds here; please give me solubility for each one.
1. CS(=O)(=O)c1cccc(-c2ccc3ncc(-c4ccc(S(=O)(=O)N5CCNCC5)cc4)n3n2)c1
2. CS(=O)(=O)c1cncc(-c2cnc3ccc(-c4cccc(S(=O)(=O)C5CC5)c4)nn23)c1

Result:
166
18

Could you report solubility for every entry in the following list?
1. C[S+]([O-])c1ccc(-c2cnc3ccc(-c4cccc(S(C)(=O)=O)c4)nn23)cc1 (centres undefined)
2. CS(=O)(=O)c1cncc(-c2ccc3ncc(-c4ccc(S(C)(=O)=O)nc4)n3n2)c1

Result:
[207, 52]

* * *

- Test system: Liver
- EXPERIMENTAL PROTOCOL: Metabolic stability in mouse liver microsomes assessed as compound remaining after 30 mins
- Assay type: ADME
- RECORDED CONDITIONS: 0.5 h
MEASURED QUANTITY: Stability

COMPOUND	MEASURED QUANTITY	RESULT
CS(=O)(=O)c1ccc(-c2cnc3ccc(-c4cccc(S(=O)(=O)CCCN)c4)nn23)cc1	Stability	Stable
CS(=O)(=O)c1ccc(-c2cnc3ccc(-c4cccc(C(=O)N5CCC(O)CC5)c4)nn23)cc1	Stability	Stable
CS(=O)(=O)c1cccc(-c2ccc3ncc(-c4ccc(S(=O)(=O)CCCN)cc4)n3n2)c1	Stability	Stable
CS(=O)(=O)c1cccc(-c2ccc3ncc(-c4ccc(S(=O)(=O)N5CCNCC5)cc4)n3n2)c1	Stability	Unstable
CS(=O)(=O)c1cccc(-c2ccc3ncc(-c4ccc(C(=O)N5CCC(O)C5)cc4)n3n2)c1 (stereo not given)	Stability	Stable

For each entry beneath this line, provide reported Stability.
1. CS(=O)(=O)c1ccc(-c2cnc3ccc(-c4cccc(C(=O)NCCO)c4)nn23)cc1
2. C[S+]([O-])c1cccc(-c2ccc3ncc(-c4ccc(S(C)(=O)=O)cc4)n3n2)c1 (stereo not given)
3. C[S+]([O-])c1ccc(-c2cnc3ccc(-c4cccc(S(C)(=O)=O)c4)nn23)cc1 (stereo not given)
4. C[S+]([O-])c1ccc(-c2cnc3ccc(-c4cccc([S+](C)[O-])c4)nn23)cc1 (stereo not given)

Result:
Unstable
Unstable
Stable
Unstable

Request: What measured Stability goes with CS(=O)(=O)c1cccc(-c2ccc3ncc(-c4ccc(C(=O)N5CCNCC5)cc4)n3n2)c1 ?
Result: Stable

* * *

- System: CHO
- EXPERIMENTAL PROTOCOL: Cytotoxicity against CHO cells
- Type: cell-based, Cricetulus griseus
- RECORDED CONDITIONS: chinese hamster
MEASURED QUANTITY: Activity

Illustrative cases are given below, each with its answer.
COMPOUND	ASSAY SYSTEM	RESULT
CS(=O)(=O)c1cccc(-c2ccc3ncc(-c4ccc(C(=O)O)cc4)n3n2)c1	CHO	Non-toxic
CS(=O)(=O)c1ccc(-c2cnc3ccc(-c4cccc(S(=O)(=O)CCCN)c4)nn23)cc1	CHO	Non-toxic
CS(=O)(=O)c1ccc(-c2cnc3ccc(-c4ccnc(C(F)(F)F)c4)nn23)cc1	CHO	Non-toxic
C[S+]([O-])c1ccc(-c2cnc3ccc(-c4cccc(S(=O)(=O)C5CC5)c4)nn23)cc1 (stereo unspecified)	CHO	Non-toxic
CS(=O)(=O)c1cccc(-c2ccc3ncc(-c4ccc(S(=O)(=O)CCCN)cc4)n3n2)c1	CHO	Non-toxic

Shifting focus to the compound that follows.
Request: Dear colleague, I am looking for the recorded Activity of the following compound: NC(=O)c1ccc(-c2cnc3ccc(-c4cccc(S(=O)(=O)C5CC5)c4)nn23)cc1
Result: Non-toxic
